Tested on: Human immunodeficiency virus 1
assay-protocol: Antiviral activity against HIV1 3B assessed as inhibition of viral replication by CCR5/CXCR4-tropic MAGI assay in presence of 10% serum
Format: functional, organism-based
conditions-used: Human immunodeficiency virus 1, 3B
reported-endpoint: EC50 (µM)

[P] COc1ccc(COc2cccc(-c3ccc4ccn(Cc5cccc(C(=O)OCc6cccc(C(=O)O)c6)c5)c4c3)c2)cc1
[Q] O=C(O)c1cccc(Cn2ccc3cc(-c4ccc5cc(Cl)ccc5n4)ccc32)c1
[R] COc1cccc(-c2ccc3ccn(Cc4cccc(C(=O)O)c4)c3c2)c1
Task for the reader: rank each entry by its EC50, from the minimum upward. Response field: labels, in requested order.
Q, P, R
